System: NIK/MAP3K14 (Homo sapiens (Human), UniProt Q99558)
Sequence (Q99558 whole entry): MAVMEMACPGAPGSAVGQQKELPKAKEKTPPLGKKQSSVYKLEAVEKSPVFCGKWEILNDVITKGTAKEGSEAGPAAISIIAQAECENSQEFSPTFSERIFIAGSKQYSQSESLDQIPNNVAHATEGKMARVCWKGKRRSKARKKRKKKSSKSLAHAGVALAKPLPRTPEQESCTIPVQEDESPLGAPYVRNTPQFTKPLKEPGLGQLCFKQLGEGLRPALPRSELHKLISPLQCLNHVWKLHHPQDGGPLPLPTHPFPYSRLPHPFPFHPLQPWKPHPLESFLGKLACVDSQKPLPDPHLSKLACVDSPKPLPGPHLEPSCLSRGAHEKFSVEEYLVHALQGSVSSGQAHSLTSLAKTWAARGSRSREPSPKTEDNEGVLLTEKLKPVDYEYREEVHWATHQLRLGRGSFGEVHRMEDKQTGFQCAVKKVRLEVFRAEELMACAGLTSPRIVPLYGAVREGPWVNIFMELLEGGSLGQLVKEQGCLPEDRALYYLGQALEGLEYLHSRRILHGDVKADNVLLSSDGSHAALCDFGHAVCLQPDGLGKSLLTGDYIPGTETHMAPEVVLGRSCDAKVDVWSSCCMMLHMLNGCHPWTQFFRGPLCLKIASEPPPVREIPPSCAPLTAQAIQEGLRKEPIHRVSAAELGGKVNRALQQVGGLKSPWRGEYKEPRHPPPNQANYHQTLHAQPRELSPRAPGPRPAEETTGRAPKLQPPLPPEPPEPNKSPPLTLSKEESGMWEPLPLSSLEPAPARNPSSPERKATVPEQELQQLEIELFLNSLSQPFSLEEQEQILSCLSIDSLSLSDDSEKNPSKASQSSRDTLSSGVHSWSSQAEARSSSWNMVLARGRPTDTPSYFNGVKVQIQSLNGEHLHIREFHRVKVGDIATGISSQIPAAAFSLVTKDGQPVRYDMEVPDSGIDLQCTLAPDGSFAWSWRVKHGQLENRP
Assay details: Inhibition of auto-phosphorylation of recombinant human NF-kappaB-inducing kinase (NIK/MAP3K14) activity (AlphaScreen)
Assay type: biochemical
Recorded conditions: averaged values over all measurements on all batches, 25 microM ATP
Property measured: IC50

Molecule	Property measured	Result
COc1cc2c(cc1Nc1nccc(-c3cc(C#N)c4c(c3)C(C)(CO)CN4)n1)CCN2C(C)=O (centres unmarked)	IC50	2.5 nM
CN(C)C(=O)c1cc2cc(Nc3nccc(-c4cc(C#N)c5c(c4)C(C)(C)CN5)n3)ccc2[nH]1 [Compound 12c]	IC50	10.5 nM
CC1(C)CNc2c(C#N)cc(-c3ccnc(Nc4cccc5c4CNC5)n3)cc21	IC50	4.3 nM
Cn1nc(Nc2nccc(-c3cc(C#N)c4c(c3)C(C)(CO)CN4)n2)c2c1CCC2 (centres unmarked)	IC50	20.4 nM
CC1(CO)CNc2c(C#N)cc(-c3ccnc(Nc4cnc5c(c4)COCC5)n3)cc21 (centres unmarked)	IC50	2.7 nM
COc1cc2c(cc1Nc1nccc(-c3cc(C#N)c4c(c3)C(C)(CO)CN4)n1)CCN2C(=O)CN(C)C (centres unmarked)	IC50	4.3 nM
CC(C)c1c(Nc2nccc(-c3cc(C#N)c4c(c3)[C@@](C)(CO)CN4)n2)nn2c1CN(C)CC2 [Compound 16b]	IC50	363 nM
Cc1c(Nc2nccc(-c3cc(C#N)c4c(c3)C(C)(CO)CN4)n2)cc(Cl)c2[nH]ccc12 (centres unmarked)	IC50	10.5 nM

---

System: NIK/MAP3K14 (Homo sapiens (Human), UniProt Q99558)
Assay details: Inhibition of auto-phosphorylation of recombinant human NF-kappaB-inducing kinase (NIK/MAP3K14) activity (AlphaScreen)
Format: biochemical
Recorded conditions: averaged values over all measurements on all batches, 25 microM ATP
Property measured: IC50 (nM)

Molecule	Quantitative readout
CC(C)N1CCCn2ncc(Nc3nccc(-c4cc(C#N)c5c(c4)[C@@](C)(CO)CN5)n3)c2C1=O [Compound 28b]	17
CN(C)CC(=O)N1CCc2c1ccc(Nc1nccc(-c3cc(C#N)c4c(c3)C(C)(CO)CN4)n1)c2F (stereo not drawn)	3.4
C[C@]1(CO)CNc2c(C#N)cc(-c3ccnc(Nc4cnn5c4COCC5)n3)cc21 [Compound 12b]	1.5
C[C@]1(CO)CNc2c(C#N)cc(-c3ccnc(Nc4cnn5c4C(=O)N(Cc4ccccc4)CC5)n3)cc21 [Compound 26b]	9.5
COc1nc2c(cc1Nc1nccc(-c3cc(C#N)c4c(c3)[C@@](C)(CO)CN4)n1)CN(C)CC2	1.7
CN(C)C(=O)C1COc2c(cc(Cl)cc2Nc2nccc(-c3cc(C#N)c4c(c3)[C@@](C)(CO)CN4)n2)C1 (stereo partly drawn) [Compound 11]	9.1
CC(C)Oc1nc2c(cc1Nc1nccc(-c3cc(C#N)c4c(c3)[C@@](C)(CO)CN4)n1)CN(C)CC2	3.4
CN(C)C(=O)C(=O)N1CCc2c(Nc3nccc(-c4cc(C#N)c5c(c4)[C@@](C)(CO)CN5)n3)cc(Cl)cc21	5
COc1cc2c(cc1Nc1nccc(-c3cc(C#N)c4c(c3)[C@@](C)(CO)CN4)n1)CCN(C)CC2	3
CC1(CO)CNc2c(C#N)cc(-c3ccnc(Nc4cc(Cl)cc5c4OCCC5)n3)cc21 (stereo not drawn)	26.9
CN1CCc2ccc(Nc3nccc(-c4cc(C#N)c5c(c4)C(C)(CO)CN5)n3)cc2CC1 (stereo not drawn)	1.4
CC1(C)CNc2c(C#N)cc(-c3ccnc(Nc4cccc5c4CNCC5)n3)cc21	12.6

---

Examples of compounds with documented log10 IC50 follow.
System: NIK/MAP3K14 (Homo sapiens (Human), UniProt Q99558)
Assay details: Inhibition of auto-phosphorylation of recombinant human NF-kappaB-inducing kinase (NIK/MAP3K14) activity (AlphaScreen)
Assay type: biochemical
Recorded conditions: averaged values over all measurements on all batches, 25 microM ATP
Description: Inhibition of Auto-Phosphorylation of Recombinant Human NF-kappaB-Inducing Kinase ([…]) Activity (AlphaScreen®) NIK/MAP3K14 auto-phosphorylation activity was measured using the AlphaScreen® (αscreen) format (Perkin Elmer). All compounds tested were dissolved in dimethyl sulfoxide (DMSO) and further dilutions were made in assay buffer. […] Protein A Acceptor and Glutathione-Donor beads were added before reading using an EnVision® Multilabel Plate Reader (Perkin Elmer). […]
Property measured: log10 IC50 (log10 of the value in nM)

Compound	log10 IC50
CN1CCn2nc(Nc3nccc(-c4cc(C#N)c5c(c4)[C@@](C)(CO)CN5)n3)cc2C1=O [Compound 13b]	0.30
C[C@]1(CO)CNc2c(C#N)cc(-c3ccnc(Nc4cc5c(nc4OC4CCCC4)CCOC5)n3)cc21	1.55
C[C@]1(CO)CNc2c(C#N)cc(-c3ccnc(Nc4cc5c(n(CCC6CC6)c4=O)CCOC5)n3)cc21	1.55
CC1(CO)CNc2c(C#N)cc(-c3ccnc(Nc4ccc5c(c4F)CCN5)n3)cc21 (centres unmarked)	0.63
Cc1nc2c(cc1Nc1nccc(-c3cc(C#N)c4c(c3)[C@@](C)(CO)CN4)n1)COCC2	0.04
C[C@]1(CO)CNc2c(C#N)cc(-c3ccnc(Nc4cnc5c(c4)CN(C4CC4)CC5)n3)cc21	0.53
CC(=O)N1CCc2c(C)c(Nc3nccc(-c4cc(C#N)c5c(c4)C(C)(CO)CN5)n3)cc(Cl)c21 (centres unmarked)	0.30
CN1Cc2cc(Nc3nccc(-c4cc(C#N)c5c(c4)C(C)(CO)CN5)n3)nn2CC1=O (centres unmarked)	0.60
